Measured Ratio EC50 of individual entries
Test system: Human immunodeficiency virus 1
Assay: Resistance index, ratio of EC50 for HIV-1 IRLL98 harboring reverse transcriptase M41L, D67N, Y181C, M184V, R211K, and T215Y mutants to EC50 for wild type HIV-1 NL4-3
Format: functional

# compound, systemTested, Ratio EC50
data = [
    ("CCCN(C)c1nc(C(C)c2c(F)cccc2F)c(C)c(=O)[nH]1 (stereo unspecified)", "Human immunodeficiency virus 1", 4),
    ("COC(c1nc(SC(C)C)[nH]c(=O)c1C)c1c(F)cccc1Cl (stereo unspecified)", "Human immunodeficiency virus 1", 2),
    ("CCC(C)Sc1nc(C(OC)c2c(F)cccc2Cl)c(C)c(=O)[nH]1 (stereo unspecified)", "Human immunodeficiency virus 1", 3),
    ("CCCNc1nc(C(OC)c2c(F)cccc2F)c(C)c(=O)[nH]1 (stereo unspecified)", "Human immunodeficiency virus 1", 3),
    ("CCC(C)Sc1nc(O)c(C)c(C(C)c2c(F)cccc2F)n1 (stereo unspecified)", "Human immunodeficiency virus 1", 88),
    ("Cc1c(C(C)c2c(F)cccc2F)nc(NC2CCCC2)[nH]c1=O (stereo unspecified)", "Human immunodeficiency virus 1", 3),
    ("CCC(C)Sc1nc(C(CC)c2c(F)cccc2F)c(C)c(=O)[nH]1 (stereo unspecified)", "Human immunodeficiency virus 1", 187),
    ("CCC(c1nc(SC2CCCC2)[nH]c(=O)c1C)c1c(F)cccc1F (stereo unspecified)", "Human immunodeficiency virus 1", 68),
    ("Cc1c(C(C)c2c(F)cccc2F)nc(SC2CCCC2)[nH]c1=O (stereo unspecified)", "Human immunodeficiency virus 1", 120),
    ("COC(c1nc(SC2CCCC2)[nH]c(=O)c1C)c1c(F)cccc1F (stereo unspecified)", "Human immunodeficiency virus 1", 29),
    ("CCC(C)Sc1nc(C(C)c2c(F)cccc2Cl)c(C)c(=O)[nH]1 (stereo unspecified)", "Human immunodeficiency virus 1", 317),
]

These measurements were taken from ChEMBL document CHEMBL4371047.
